# Assay Target: modified Y2R used for crystallization without N-terminal T4L (Construct_no T4L) (Homo sapiens, UniProt P49146, DEL251-256/H149Y/S280C)
# Construct: eYFP (from the vector name) (C); expressed in transfected cells; host or cells: HEK293 (membrane preparations)
# Sequence (P49146 with tags, fused parts or gaps H149Y/DEL251-256/S280C): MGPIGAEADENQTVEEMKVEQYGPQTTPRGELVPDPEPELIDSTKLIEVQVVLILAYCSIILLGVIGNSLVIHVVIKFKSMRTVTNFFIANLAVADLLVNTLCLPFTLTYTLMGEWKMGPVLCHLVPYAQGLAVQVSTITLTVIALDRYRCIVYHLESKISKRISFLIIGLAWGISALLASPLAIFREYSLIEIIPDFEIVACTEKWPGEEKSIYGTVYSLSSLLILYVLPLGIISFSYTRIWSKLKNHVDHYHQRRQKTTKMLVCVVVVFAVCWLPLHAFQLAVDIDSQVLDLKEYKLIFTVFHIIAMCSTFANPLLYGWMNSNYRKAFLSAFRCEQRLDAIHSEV
# Assay Notes: NanoBRET-based binding assay (K18(TAMRA)-NPY)
# Assay Conditions: 300 nM K18(TAMRA)-NPY, read-out: IC50, NanoBRET binding
Reported Metric: IC50 (nM)
State just the number; it will be interpreted in nM.

## Task Which value of IC50 has been reported for CCN(CC)C(=O)C(c1ccccc1)N1CCN(c2ccc(NC(=O)c3ccccc3-c3cccnc3)cc2F)CC1 (stereo not shown) in the records?
## Result 0.7
